assay: physchem; format: physicochemical; details: buffer, pH 7
Assay Metric: half-life

1. COc1ccc2c(c1)OC(O)C(=O)N2OC (stereo not shown) ... ~10 min

====

assay: physchem; format: physicochemical; settings: buffer, pH 5.5
Assay Metric: half-life

1) COc1ccc2c(c1)OC(O)C(=O)N2OC (stereo not shown) ... < 4 h

====

Test system: vir gene expression in wild-type strain A348
Assay: vir induction assay, β-galactosidase reporter, wild-type strain
Format: cell-based, A. tumefaciens
Settings: wild-type A348/pSW209
Experimental: vir Induction Assay. A. tumefaciens strains were grown overnight at 27° C. to an optical density of about 0.3-0.6 at 600 nm (OD600) in LB medium supplemented win appropriate antibiotics. Cells were then pelleted by centrifugation and resuspended to an OD600 of 0 1 per ml in sterilized induction medium (ABIM. pH 5.5) supplemented with either 1% glucose or 1% glycerol with or without 0.1% arabinose (w/v). […] ED50 values for the inducers evaluated were estimated from such dose response plots. […]
Assay Metric: vir inducing activity (virB::lacZ β-galactosidase)

1. COc1cc2c(cc1O)CCC2=O [Z-indanone, 5-hydroxy-6-methoxy-1-indanone] ... equivalent activity
2. COc1cc(C2CC2CO)ccc1O (stereo not drawn) [cis-CP] ... equivalent activity
3. COc1c(O)ccc2c1CCC2=O [E-indanone, 5-hydroxy-4-methoxy-1-indanone] ... equivalent activity

====

test system: vir gene expression in hypersensitive mutants (AB140, AB147); experiment: vir induction assay, β-galactosidase reporter, phenol hypersensitive mutants; assay type: cell-based, A. tumefaciens; details: hypersensitive mutants, e.g. AB140, versus wild-type
Assay Metric: vir inducing activity / hypersensitivity in mutants

1) COc1cc2c(c(OC)c1O)CCC2=O [D-indanone, 5-hydroxy-4,6-dimethoxyindanone] ... hypersensitive
2) COc1cc(C(C)=O)cc(OC)c1O [AS, Acetosyringone] ... hypersensitive
3) COc1c(O)ccc2c1CCC2=O [E-indanone, 5-hydroxy-4-methoxy-1-indanone] ... hypersensitive
